Quick list: IC50 per entry.
molecular target: Phospholipase D2 (Homo sapiens, UniProt O14939); experiment: Inhibition of PLD2 (unknown origin) expressed in human HEK cells by immunoprecipitation
Sequence (O14939 whole entry): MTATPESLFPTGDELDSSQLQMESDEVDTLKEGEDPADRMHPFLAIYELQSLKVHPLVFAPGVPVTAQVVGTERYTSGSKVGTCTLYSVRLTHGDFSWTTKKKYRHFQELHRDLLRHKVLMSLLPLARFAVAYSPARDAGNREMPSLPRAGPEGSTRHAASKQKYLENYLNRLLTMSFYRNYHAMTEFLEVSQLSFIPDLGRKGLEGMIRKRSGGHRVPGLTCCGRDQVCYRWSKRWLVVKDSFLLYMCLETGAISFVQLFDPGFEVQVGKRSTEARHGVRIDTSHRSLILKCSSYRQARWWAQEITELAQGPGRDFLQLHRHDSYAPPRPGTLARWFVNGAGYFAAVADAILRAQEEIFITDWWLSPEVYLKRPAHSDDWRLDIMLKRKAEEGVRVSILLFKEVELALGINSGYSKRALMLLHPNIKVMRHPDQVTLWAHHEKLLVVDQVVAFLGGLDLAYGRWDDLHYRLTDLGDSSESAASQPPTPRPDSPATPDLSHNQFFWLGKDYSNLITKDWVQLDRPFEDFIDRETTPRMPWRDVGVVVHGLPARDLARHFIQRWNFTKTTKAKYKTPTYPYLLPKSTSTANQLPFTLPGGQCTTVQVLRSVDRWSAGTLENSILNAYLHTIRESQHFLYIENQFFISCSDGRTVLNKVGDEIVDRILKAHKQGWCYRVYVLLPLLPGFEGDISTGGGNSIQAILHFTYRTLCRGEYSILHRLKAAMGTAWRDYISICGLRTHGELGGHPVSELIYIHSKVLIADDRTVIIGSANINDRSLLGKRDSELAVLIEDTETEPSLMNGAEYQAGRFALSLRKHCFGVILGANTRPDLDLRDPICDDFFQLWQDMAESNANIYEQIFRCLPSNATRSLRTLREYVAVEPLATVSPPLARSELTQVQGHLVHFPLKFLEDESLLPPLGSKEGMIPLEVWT
Value expressed in nM; do not type the unit.

# annotated cases, reported IC50 shown
>>> df
                                item_smiles  measured_property  quantitative_readout
0  C[C@@H](C(=O)N1CCC(F)(F)C1)N1CCC(n2c(=O)[nH]c3ccccc32)CC1               IC50                  2900
1  C[C@@H](CN1CCC2(CC1)OC(=O)NC[C@H]2c1cccc(F)c1)NC(=O)c1ccc(F)cc1               IC50                    64
2  C[C@@H]1CN(C(=O)[C@H](C)N2CCC(n3c(=O)[nH]c4ccccc43)CC2)C[C@H](C)N1               IC50                   200
3  C[C@@H]1CN(C(=O)[C@H](C)N2CCC(n3c(=O)[nH]c4ccccc43)CC2)C[C@@H](C)N1               IC50                   230
4  C[C@@H](C(=O)N1CCNC(C)(C)C1)N1CCC(n2c(=O)[nH]c3ccccc32)CC1               IC50                  7000
5  C[C@@H](CN1CCC2(CC1)OC(=O)Nc1cccnc12)NC(=O)c1ccc(F)cc1               IC50                  4100
6  C[C@@H](CN1CCC(n2c(=O)[nH]c3ccccc32)CC1)NC(=O)c1ccc(F)cc1               IC50                  5600
7  C[C@@H](CN1CCC2(CC1)OC(=O)Nc1ccccc12)NC(=O)c1ccc(F)cc1               IC50                  1300
8  C[C@@H](CN1CCC2(CC1)C(=O)NCN2c1cccc(F)c1)NC(=O)c1ccc(Br)cc1               IC50                    67
9  C[C@@H]1CN(C(=O)[C@H](C)N2CCC(n3c(=O)[nH]c4ccccc43)CC2)Cc2ccccc21               IC50                   320

Inquiry: Give IC50 for CC[C@H]1CN(C(=O)[C@H](C)N2CCC(n3c(=O)[nH]c4ccccc43)CC2)CCN1 tested on Phospholipase D2 (Homo sapiens, UniProt O14939).
Reply text: 920

Inquiry: Give IC50 for C[C@@H](CN1CCC2(CC1)OC(=O)Nc1ccncc12)NC(=O)c1ccc(F)cc1 tested on Phospholipase D2 (Homo sapiens, UniProt O14939).
Reply text: 3200

Inquiry: Give IC50 for C[C@H]1CN(C(=O)[C@H](C)N2CCC(n3c(=O)[nH]c4ccccc43)CC2)CCN1 tested on Phospholipase D2 (Homo sapiens, UniProt O14939).
Reply text: 1100

Inquiry: Give IC50 for C[C@@H](CN1CCC2(CC1)OC(=O)Nc1cc(F)ccc12)NC(=O)c1ccc(F)cc1 tested on Phospholipase D2 (Homo sapiens, UniProt O14939).
Reply text: 1000

----------
Target: Phospholipase D1 (Homo sapiens)
Sequence (Q13393 whole entry): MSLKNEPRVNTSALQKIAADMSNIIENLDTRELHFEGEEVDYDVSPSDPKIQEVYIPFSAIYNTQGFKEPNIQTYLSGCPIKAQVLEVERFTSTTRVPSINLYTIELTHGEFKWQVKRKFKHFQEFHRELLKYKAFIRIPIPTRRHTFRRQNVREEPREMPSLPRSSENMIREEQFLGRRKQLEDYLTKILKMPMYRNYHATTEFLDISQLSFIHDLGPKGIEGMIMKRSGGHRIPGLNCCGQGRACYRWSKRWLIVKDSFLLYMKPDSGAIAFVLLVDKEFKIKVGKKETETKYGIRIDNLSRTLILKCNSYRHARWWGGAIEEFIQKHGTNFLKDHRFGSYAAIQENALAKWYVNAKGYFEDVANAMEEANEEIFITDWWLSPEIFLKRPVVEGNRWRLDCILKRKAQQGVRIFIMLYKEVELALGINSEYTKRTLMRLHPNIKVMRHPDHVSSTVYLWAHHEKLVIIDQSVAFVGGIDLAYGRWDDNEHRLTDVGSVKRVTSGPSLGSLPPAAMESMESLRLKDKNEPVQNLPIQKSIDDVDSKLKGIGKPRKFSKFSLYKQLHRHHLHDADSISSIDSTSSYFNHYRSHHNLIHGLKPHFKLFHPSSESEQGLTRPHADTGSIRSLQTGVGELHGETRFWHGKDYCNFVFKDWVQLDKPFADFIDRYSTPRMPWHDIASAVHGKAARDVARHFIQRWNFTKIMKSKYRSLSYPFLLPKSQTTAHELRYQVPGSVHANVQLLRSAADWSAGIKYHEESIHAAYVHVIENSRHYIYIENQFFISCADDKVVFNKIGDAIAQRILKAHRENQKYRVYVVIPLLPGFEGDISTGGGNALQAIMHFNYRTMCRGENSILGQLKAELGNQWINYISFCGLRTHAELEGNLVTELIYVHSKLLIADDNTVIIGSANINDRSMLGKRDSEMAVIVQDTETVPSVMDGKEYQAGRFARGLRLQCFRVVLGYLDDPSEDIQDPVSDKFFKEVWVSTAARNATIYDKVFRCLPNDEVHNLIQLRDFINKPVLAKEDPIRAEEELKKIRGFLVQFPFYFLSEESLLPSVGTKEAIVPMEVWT
Assay: Inhibition of PLD1 (unknown origin) expressed in human HEK cells by immunoprecipitation assay
Quick list: IC50 per entry.
Value expressed in nM; do not type the unit.

Inquiry: Find the measured IC50 of C[C@@H](CN1CCC2(CC1)OC(=O)Nc1ccncc12)NC(=O)c1ccc(F)cc1 and report it.
Reply text: 110

Inquiry: Find the measured IC50 of C[C@@H]1CNCCN1C(=O)[C@H](C)N1CCC(n2c(=O)[nH]c3ccccc32)CC1 and report it.
Reply text: 140

Inquiry: Find the measured IC50 of C[C@@H]1CN(C(=O)[C@H](C)N2CCC(n3c(=O)[nH]c4ccccc43)CC2)C[C@@H](C)N1 and report it.
Reply text: 44

Inquiry: Find the measured IC50 of C[C@@H](CN1CCC2(CC1)CC(=O)Nc1ccccc12)NC(=O)c1ccc(F)cc1 and report it.
Reply text: 490

Inquiry: Find the measured IC50 of CC[C@H]1CN(C(=O)[C@H](C)N2CCC(n3c(=O)[nH]c4ccccc43)CC2)CCN1 and report it.
Reply text: 68

Inquiry: Find the measured IC50 of C[C@@H]1CN(C(=O)[C@H](C)N2CCC(n3c(=O)[nH]c4ccccc43)CC2)CCN1 and report it.
Reply text: 320

Inquiry: Find the measured IC50 of C[C@@H](CN1CCC(N2C(=O)Cc3ccccc32)CC1)NC(=O)c1ccc(F)cc1 and report it.
Reply text: 1200

Inquiry: Find the measured IC50 of C[C@@H](CN1CCC2(CC1)NC(=O)Nc1ccccc12)NC(=O)c1ccc(F)cc1 and report it.
Reply text: 280

Inquiry: Find the measured IC50 of C[C@@H](CN1CCC(c2n[nH]c3ccccc23)CC1)NC(=O)c1ccc(F)cc1 and report it.
Reply text: 970

Inquiry: Find the measured IC50 of C[C@@H](C(=O)N1CCNC(C)(C)C1)N1CCC(n2c(=O)[nH]c3ccccc32)CC1 and report it.
Reply text: 360

Inquiry: Find the measured IC50 of C[C@H]1CN(C(=O)[C@H](C)N2CCC(n3c(=O)[nH]c4ccccc43)CC2)CCN1 and report it.
Reply text: 76

Inquiry: Find the measured IC50 of C[C@@H](C(=O)N1CCOCC1)N1CCC(n2c(=O)[nH]c3ccccc32)CC1 and report it.
Reply text: 380

Inquiry: Find the measured IC50 of C[C@@H](C(=O)N1CCC(F)(F)C1)N1CCC(n2c(=O)[nH]c3ccccc32)CC1 and report it.
Reply text: 170

----------
assay: Drug concentration in sc dosed C57BL/6 mouse brain measured after 15 mins by LC-FTICR-MS analysis; assay type: ADME, organism-based; conditions: read-out: Ct
MEASURED_PROPERTY: concentration at 0.25 h (ng/g)
Value expressed in ng/g; do not type the unit.

Inquiry: Find the measured concentration at 0.25 h of C[C@@H]1CN(C(=O)[C@H](C)N2CCC(n3c(=O)[nH]c4ccccc43)CC2)C[C@@H](C)N1 and report it.
Reply text: 83.8

----------
assay: Microsomal stability in rat liver microsomes assessed as intrinsic clearance; format: ADME, Microsome; conditions: read-out: CLH
Quick list: CLint scaled per entry.

                                item_smiles          result
0  C[C@H]1CN(C(=O)[C@H](C)N2CCC(n3c(=O)[nH]c4ccccc43)CC2)CCN1  < 10 mL/min/kg
1  C[C@@H]1CN(C(=O)[C@H](C)N2CCC(n3c(=O)[nH]c4ccccc43)CC2)C[C@@H](C)N1    64 mL/min/kg

Inquiry: Find the measured CLint scaled of C[C@@H](CN1CCC(n2c(=O)[nH]c3ccccc32)CC1)NC(=O)c1ccc(F)cc1 and report it.
Reply text: 170 mL/min/kg

Inquiry: Find the measured CLint scaled of C[C@@H]1CN(C(=O)[C@H](C)N2CCC(n3c(=O)[nH]c4ccccc43)CC2)CCN1 and report it.
Reply text: 29 mL/min/kg

Inquiry: Find the measured CLint scaled of C[C@@H]1CNCCN1C(=O)[C@H](C)N1CCC(n2c(=O)[nH]c3ccccc32)CC1 and report it.
Reply text: 84 mL/min/kg

Inquiry: Find the measured CLint scaled of C[C@@H](CN1CCC2(CC1)OC(=O)Nc1ccncc12)NC(=O)c1ccc(F)cc1 and report it.
Reply text: 50 mL/min/kg

Inquiry: Find the measured CLint scaled of C[C@@H](CN1CCC2(CC1)OC(=O)NC[C@H]2c1cccc(F)c1)NC(=O)c1ccc(F)cc1 and report it.
Reply text: 394 mL/min/kg

Inquiry: Find the measured CLint scaled of C[C@@H](C(=O)N1CCOCC1)N1CCC(n2c(=O)[nH]c3ccccc32)CC1 and report it.
Reply text: 162 mL/min/kg

Inquiry: Find the measured CLint scaled of C[C@@H](CN1CCC2(CC1)CC(=O)Nc1ccccc12)NC(=O)c1ccc(F)cc1 and report it.
Reply text: 83 mL/min/kg

Inquiry: Find the measured CLint scaled of C[C@@H](CN1CCC(n2c(=O)oc3ccccc32)CC1)NC(=O)c1ccc(F)cc1 and report it.
Reply text: 314 mL/min/kg

Inquiry: Find the measured CLint scaled of C[C@@H]1CN(C(=O)[C@H](C)N2CCC(n3c(=O)[nH]c4ccccc43)CC2)C[C@H](C)N1 and report it.
Reply text: 43 mL/min/kg

Inquiry: Find the measured CLint scaled of C[C@@H](CN1CCC(N2C(=O)Cc3ccccc32)CC1)NC(=O)c1ccc(F)cc1 and report it.
Reply text: 311 mL/min/kg

Inquiry: Find the measured CLint scaled of C[C@@H](CN1CCC2(CC1)NC(=O)Nc1ccccc12)NC(=O)c1ccc(F)cc1 and report it.
Reply text: 66 mL/min/kg

Inquiry: Find the measured CLint scaled of C[C@@H](CN1CCC2(CC1)c1ccccc1NC(=O)N2C)NC(=O)c1ccc(F)cc1 and report it.
Reply text: 113 mL/min/kg

Inquiry: Find the measured CLint scaled of C[C@@H]1CN(C(=O)[C@H](C)N2CCC(n3c(=O)[nH]c4ccccc43)CC2)Cc2ccccc21 and report it.
Reply text: > 300 mL/min/kg

Inquiry: Find the measured CLint scaled of C[C@@H](CN1CCC2(CC1)OC(=O)Nc1cc(F)ccc12)NC(=O)c1ccc(F)cc1 and report it.
Reply text: 250 mL/min/kg

Inquiry: Find the measured CLint scaled of C[C@@H](CN1CCC(N2CCNC2=O)CC1)NC(=O)c1ccc(F)cc1 and report it.
Reply text: 16 mL/min/kg

Inquiry: Find the measured CLint scaled of C[C@@H](CN1CCC(c2n[nH]c3ccccc23)CC1)NC(=O)c1ccc(F)cc1 and report it.
Reply text: 311 mL/min/kg

Inquiry: Find the measured CLint scaled of C[C@@H](CN1CCC2(CC1)C(=O)NCN2c1cccc(F)c1)NC(=O)c1ccc(Br)cc1 and report it.
Reply text: 312 mL/min/kg
